- Test system: NCI-H226
- PROTOCOL_SUMMARY: NCI tumour cell line growth inhibition, 48 h
Active and inactive are the calls of the source. No stated cut-off is given here; in the data, active = GI50 up to about 1.1 µM and inactive = higher. Square brackets hold non-standard residues; d marks the D form. Peptide text beside a SMILES is read from it. * marks the point of attachment. ξ: configuration not given here. ξW = NC(Cc1c[nH]c2ccccc12)C(=O)O; X29 = O=C(O)[C@H]1CCC[C@H]1N*; ξF = NC(Cc1ccccc1)C(=O)O; Boc = CC(C)(C)OC(=O)*; ξK = NCCCCC(N)C(=O)O; ξT = CC(O)C(N)C(=O)O; tBu = CC(C)(C)*
The reply should be one of these categories: active, inactive

The examples below pair each entry with its known result.
COMPOUND	LABEL_CLASS
COc1ccc(/C(Cl)=C(\c2ccc(OCCN(C)C)cc2)c2ccc(OC(=O)C(C)(C)C)cc2)cc1	inactive
O=C(Nc1c(O)[nH]c(=S)[nH]c1=O)c1ccc2ccccc2n1	inactive
Fc1cc2nc3n(c2cc1F)C(c1c(F)cccc1F)SC3 (stereo not drawn)	inactive

Exercise: What is the recorded call for this compound in the test? C[C@H](NC1=CC(=O)C(N[C@@H](C)[C@H](O)c2ccccc2)=CC1=O)[C@H](O)c1ccccc1
Key: inactive

Exercise: Fill in: this test's call for O=c1ccc2nc3ccc(O)cc3oc-2c1 is ___
Key: inactive

Exercise: Please indicate how the test categorized COc1cc(OC)c2c(O)c(S(=O)(=O)c3ccc(C)cc3)c(=O)oc2c1 .
Key: inactive

Exercise: What classification did O=C(CCc1cccc(O)c1)NCCc1ccc(O)cc1 end up with in this test?
Key: inactive

Exercise: Record request — test call for Cc1ccc(/C=N/n2c(-c3ccc(C)cc3)n[nH]c2=O)cc1
Key: inactive

Exercise: Can you look up the reported call for O=[N+]([O-])c1ccc2[nH]nc(OCc3ccccc3Cl)c2c1 for me?
Key: inactive

Exercise: Record lookup: outcome of this test for Cc1ccc2c(c1)C(=O)c1[nH]c3ccc(F)cc3c1CO2 ?
Key: inactive

Exercise: Any idea what this test logged for C=C1C(=O)OC2C3C(=C)[C@@H](OC(C)=O)CC3C(C)=CC(OC(=O)C(C)(O)C(C)OC(C)=O)[C@@H]12 (stereo partly drawn) ?
Key: inactive

Exercise: Please share the test call associated with Cc1ccc(S(=O)(=O)ON2C(=O)c3cccc4cc([N+](=O)[O-])cc(c34)C2=O)cc1 .
Key: inactive

Exercise: Can you look up the reported call for COc1cc(C(C[N+](=O)[O-])SC(C)=O)ccc1OCc1ccccc1 (stereo not drawn) for me?
Key: inactive

Exercise: GET /call?item= CC(OC(C)(C)C)C(NC(=O)C(CCCCNC(=O)OC(C)(C)C)NC(=O)C(Cc1c[nH]c2ccccc12)NC(=O)C(N)Cc1ccccc1)C(=O)NC(Cc1ccccc1)C(=O)N[C@@H]1CCC[C@@H]1C(=O)O (stereo partly drawn) (H-[ξF][ξW][ξK](Boc)[ξT](tBu)[ξF]-X29) returns the recorded outcome of this test.
Key: inactive

Exercise: Per the assay record, what outcome was assigned to COc1cccc2c1C(=O)c1c(O)c3c(c(O)c1C2=O)C[C@@](O)(C(=O)CO)CC3OC1CC(N)C(OC2CCCCO2)C(C)O1 (stereo partly drawn) ?
Key: active

Exercise: Please let me know the test result on file for CN/N=C(\C(=O)Nc1ccc(C)c(C)c1)C(C(=O)OC)c1nc2ccc([N+](=O)[O-])cc2nc1O (stereo not drawn) .
Key: inactive

Exercise: // param item: O=C1c2ccccc2C(=O)N1C/C=C/CO ; yields the recorded call
Key: inactive

Exercise: Outcome? C=C(C)[C@@H](O)[C@H](O)C[C@H](C)C1CC[C@]2(C)C1=CC[C@@H]1[C@@]3(C)CC[C@@H](OC(C)=O)C(C)(C)[C@@H]3C[C@@H](OC3OC(COC(C)=O)C(O)C(O)C3O)[C@]12C (stereo partly drawn)
Key: inactive

Exercise: Look up the recorded call for CC1=C(c2ccccc2)CON(c2ccccc2)C1 in this test.
Key: inactive

Exercise: What is the recorded call for this compound in the test? CCCCCCCCCCCCCB(O)O
Key: inactive

Exercise: Recorded test outcome, item COC(=O)[C@@H]1C=CCN1S(=O)(=O)c1ccc(C)cc1
Key: inactive
